target: BRAF (Homo sapiens); construct: purchased Invitrogen; test: In vitro kinase assay (Z'-LYTE), BRAF; format: biochemical; details: read-out: % of inhibition of the kinase compared to the control
Sequence (P15056 whole entry): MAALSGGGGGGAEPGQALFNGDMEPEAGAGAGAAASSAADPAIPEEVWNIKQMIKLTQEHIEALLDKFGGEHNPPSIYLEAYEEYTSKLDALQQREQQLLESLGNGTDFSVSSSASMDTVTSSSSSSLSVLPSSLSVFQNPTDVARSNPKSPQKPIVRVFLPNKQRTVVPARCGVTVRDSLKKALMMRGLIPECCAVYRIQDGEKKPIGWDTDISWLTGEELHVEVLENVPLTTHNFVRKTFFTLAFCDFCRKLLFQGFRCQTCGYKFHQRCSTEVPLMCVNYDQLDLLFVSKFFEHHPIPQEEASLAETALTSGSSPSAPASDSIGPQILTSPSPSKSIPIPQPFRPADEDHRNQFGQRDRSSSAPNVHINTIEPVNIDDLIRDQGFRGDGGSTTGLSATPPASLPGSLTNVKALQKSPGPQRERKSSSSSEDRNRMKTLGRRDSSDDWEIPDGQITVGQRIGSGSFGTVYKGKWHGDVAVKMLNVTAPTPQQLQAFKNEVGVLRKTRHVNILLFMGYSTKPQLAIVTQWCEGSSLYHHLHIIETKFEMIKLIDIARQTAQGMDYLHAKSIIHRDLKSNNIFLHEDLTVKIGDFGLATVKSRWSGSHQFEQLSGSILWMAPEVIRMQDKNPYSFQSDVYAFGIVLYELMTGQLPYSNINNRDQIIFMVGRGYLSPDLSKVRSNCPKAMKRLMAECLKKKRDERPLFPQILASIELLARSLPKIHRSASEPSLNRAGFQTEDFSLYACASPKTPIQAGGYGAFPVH
In this section, each of the compounds is paired with its reported inhibition at 0.1 µM.

Here's what some known entries look like.
CC(=O)c1cc2cc(NCc3cc(NC(=O)Nc4cccnc4)ccc3C)cnc2[nH]1 : ≥ 50%
CNC(=O)c1cc2cc(NCc3cc(NC(=O)c4ccc(CN5CCN(C)CC5)cc4)ccc3C)cnc2[nH]1 : ≥ 50%
Cc1ccc(NC(=O)c2ccc(CN3CCN(C)CC3)c(C(F)(F)F)c2)cc1C(=O)Nc1cnc2[nH]c(C(=O)O)cc2c1 : < 50%
Cc1cn(-c2cc(C(=O)Nc3ccc(C)c(CNc4cnc5[nH]c(C(=O)O)cc5c4)c3)cc(C(F)(F)F)c2)cn1 : < 50%
CC(=O)c1cc2cc(NCc3cc(NC(=O)c4ccc(C)c(C(F)(F)F)c4)ccc3C)cnc2[nH]1 : < 50%

### Prompt Tell me the measured inhibition at 0.1 µM of CC(=O)c1cc2cc(NCc3cc(NC(=O)c4ccn[nH]4)ccc3C)cnc2[nH]1 , please.
### Response ≥ 50%

### Prompt What about CC(=O)c1cc2cc(NCc3cc(NC(=O)c4cncc(C)c4)ccc3C)cnc2[nH]1 ?
### Response ≥ 50%

### Prompt What about CC(=O)c1cc2cc(NCc3cc(NC(=O)c4cc[nH]c4)ccc3C)cnc2[nH]1 ?
### Response ≥ 50%

---

biological target: EGFR (ErbB1) T790M L858R (Homo sapiens, UniProt P00533, L858R/T790M); construct: purchased Invitrogen; experiment: In vitro kinase assay (Z'-LYTE), EGFR (ErbB1) T790M L858R; type: biochemical; conditions: read-out: % of inhibition of the kinase compared to the control
Sequence (P00533 25-1210 T790M/L858R): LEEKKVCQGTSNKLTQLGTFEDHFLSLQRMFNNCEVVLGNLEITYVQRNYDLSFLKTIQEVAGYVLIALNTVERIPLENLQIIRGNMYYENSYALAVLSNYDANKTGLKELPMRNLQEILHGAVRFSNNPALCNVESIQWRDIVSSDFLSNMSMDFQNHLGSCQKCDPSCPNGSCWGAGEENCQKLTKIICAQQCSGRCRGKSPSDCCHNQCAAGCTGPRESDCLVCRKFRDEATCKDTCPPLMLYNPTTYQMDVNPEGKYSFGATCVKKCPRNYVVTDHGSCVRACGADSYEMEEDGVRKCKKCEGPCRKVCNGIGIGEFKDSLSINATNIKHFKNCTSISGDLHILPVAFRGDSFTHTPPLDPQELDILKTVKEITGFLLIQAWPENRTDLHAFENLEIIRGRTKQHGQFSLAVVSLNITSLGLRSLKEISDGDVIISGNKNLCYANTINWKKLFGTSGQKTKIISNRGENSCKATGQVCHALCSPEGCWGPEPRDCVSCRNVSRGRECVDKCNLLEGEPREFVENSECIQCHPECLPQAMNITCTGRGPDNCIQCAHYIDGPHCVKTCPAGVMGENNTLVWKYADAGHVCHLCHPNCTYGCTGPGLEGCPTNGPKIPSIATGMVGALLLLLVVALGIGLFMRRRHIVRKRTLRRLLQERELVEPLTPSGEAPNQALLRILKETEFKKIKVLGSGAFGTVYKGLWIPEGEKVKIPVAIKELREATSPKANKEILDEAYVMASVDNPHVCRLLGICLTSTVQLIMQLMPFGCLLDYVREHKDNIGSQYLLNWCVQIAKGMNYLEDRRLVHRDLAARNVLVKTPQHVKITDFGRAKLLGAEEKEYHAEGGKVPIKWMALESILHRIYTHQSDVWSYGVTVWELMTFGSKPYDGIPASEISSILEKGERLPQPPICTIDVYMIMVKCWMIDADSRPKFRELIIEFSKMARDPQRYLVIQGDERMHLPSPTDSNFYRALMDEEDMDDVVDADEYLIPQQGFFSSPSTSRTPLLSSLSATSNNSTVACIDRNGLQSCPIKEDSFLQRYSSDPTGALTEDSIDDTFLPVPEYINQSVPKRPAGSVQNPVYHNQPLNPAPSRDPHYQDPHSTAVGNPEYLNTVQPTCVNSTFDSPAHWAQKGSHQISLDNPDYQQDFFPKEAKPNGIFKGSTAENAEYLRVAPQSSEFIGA
measure-name: inhibition at 0.1 µM

Here's what some known entries look like.
Cc1ccc(NC(=O)c2ccc(CN3CCN(C)CC3)c(C(F)(F)F)c2)cc1CNc1cnc2[nH]c(C(=O)O)cc2c1 : ≥ 50%
CC(=O)c1cc2cc(NCc3cc(NC(=O)c4cc(-n5cnc(C)c5)cc(C(F)(F)F)c4)ccc3C)cnc2[nH]1 : < 50%
Cc1ccc(NC(=O)c2ccc(CN3CCC(N(C)C)C3)c(C(F)(F)F)c2)cc1CNc1cnc2[nH]c(C(=O)O)cc2c1 (stereo not shown) : ≥ 50%

Now consider a different compound.
### Prompt Tell me the measured inhibition at 0.1 µM of CNC(=O)c1cc2cc(NCc3cc(NC(=O)c4ccc(CN5CCC(N(C)C)C5)c(C(F)(F)F)c4)ccc3C)cnc2[nH]1 (stereo not shown) , please.
### Response ≥ 50%

---

In this section, each of the compounds is paired with its reported inhibition at 0.1 µM.
molecular target: FGFR2 (Homo sapiens, UniProt P21802); construct: purchased Invitrogen; assay: In vitro kinase assay (Z'-LYTE), FGFR2; assay type: biochemical; conditions: read-out: % of inhibition of the kinase compared to the control
Sequence (P21802 22-821): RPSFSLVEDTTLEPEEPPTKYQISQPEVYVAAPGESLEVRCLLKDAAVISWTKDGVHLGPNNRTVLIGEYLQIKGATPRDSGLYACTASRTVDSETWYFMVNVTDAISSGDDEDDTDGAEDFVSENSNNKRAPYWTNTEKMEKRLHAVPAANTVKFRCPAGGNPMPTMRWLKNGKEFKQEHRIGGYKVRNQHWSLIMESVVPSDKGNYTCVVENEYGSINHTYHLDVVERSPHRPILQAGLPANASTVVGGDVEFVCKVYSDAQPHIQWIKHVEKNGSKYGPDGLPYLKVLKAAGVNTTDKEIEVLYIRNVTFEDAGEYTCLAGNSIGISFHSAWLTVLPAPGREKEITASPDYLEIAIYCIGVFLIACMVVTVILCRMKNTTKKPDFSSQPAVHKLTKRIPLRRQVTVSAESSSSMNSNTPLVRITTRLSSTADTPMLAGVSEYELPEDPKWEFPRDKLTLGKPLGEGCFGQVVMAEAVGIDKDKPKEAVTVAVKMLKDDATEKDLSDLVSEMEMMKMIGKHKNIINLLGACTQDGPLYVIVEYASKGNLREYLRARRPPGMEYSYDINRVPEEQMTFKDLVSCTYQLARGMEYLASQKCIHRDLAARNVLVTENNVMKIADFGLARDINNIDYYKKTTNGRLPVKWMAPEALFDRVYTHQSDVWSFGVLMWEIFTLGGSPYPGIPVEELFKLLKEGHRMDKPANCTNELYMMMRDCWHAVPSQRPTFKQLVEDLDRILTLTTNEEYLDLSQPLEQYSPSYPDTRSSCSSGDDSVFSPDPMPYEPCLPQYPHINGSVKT

CC(=O)c1cc2cc(NCc3cc(NC(=O)c4ccncn4)ccc3C)cnc2[nH]1 : < 50%
CC(=O)c1cc2cc(NCc3cc(NC(=O)c4cncc(C(F)(F)F)c4)ccc3C)cnc2[nH]1 : < 50%
CC(=O)c1cc2cc(NCc3cc(NC(=O)c4cncc(C(F)(F)F)c4)ccc3F)cnc2[nH]1 : < 50%
CC(=O)c1cc2cc(NCc3cc(NC(=O)Nc4cccc(C(F)(F)F)c4)ccc3C)cnc2[nH]1 : < 50%
CC(=O)c1cc2cc(NCc3cccc(C(=O)Nc4cccnc4)c3)cnc2[nH]1 : ≥ 50%

### Prompt State its inhibition at 0.1 µM on FGFR2 (Homo sapiens, UniProt P21802): CC(=O)c1cc2cc(NCc3cc(NC(=O)c4cccc(C(F)(F)F)c4)ccc3C)cnc2[nH]1
### Response < 50%
